B1: ZNF263 (parent)
chain: PEASHLRFRRFRFQEAAGPREALS

variants of: B1; assay: protein stability index of a GFP-peptide fusion (GPS, HEK-293T) (PSI 1-6); higher = more stable; details: c terminus: a fixed tail appended;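 further: lentivirally expressed fusions sorted by FACS into six bins by GFP to DsRed ratio, PSI derived from sequencing read proportions per bin multiplied by bin number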
Reported protein stability index is given for each of the following variants.

variant.label | protein stability index
A22E | 3.15
L23E | 3.5
A3R | 2.71
F13V | 3.61
F11G | 3.89
A16R | 2.88
S24F | 2.07
E15R | 1.98
H5R | 2.68
L23Y | 1.71
E21F | 2.34
P1Q | 2.79
S4V | 1.93
L6H | 3.46
R12C | 1.81
L23I | 2.48
S24T | 2.22
E15T | 2.74

Just for reference, the supplement of paper PMC10567573 is where these values come from.
